System: HU (Mycoplasma gallisepticum)
Test: EMSA
Conditions: 20 mM Tris-HCl pH 8.0, 7% glycerol, 40 mM NaCl (dsDNA length series, 200 nM DNA, gel 50 mM Tris-borate) or 150 mM NaCl (distorted structures, 10.5 nM DNA, gel …)
propertyLabel: Kd (µM)
Express your answer in µM, writing the number without its unit.

GET /value?item= AGTCTAGAGTGCAGTTGAGTCCTTGCTACGACGGATCCCTTAGGTCAG / CTGACCTAAGGGATCCGTCGTAGCAAGAGACTCAACTGCACTCTAGACT [bulge A1] &field=Kd returns 0.132

Where these numbers come from: paper PMC5683647
